biological target: Interleukin-1 receptor-associated kinase 4 (Homo sapiens); assay: Inhibition of human IRAK4 (unknown origin)
Sequence (Q9NWZ3 whole entry): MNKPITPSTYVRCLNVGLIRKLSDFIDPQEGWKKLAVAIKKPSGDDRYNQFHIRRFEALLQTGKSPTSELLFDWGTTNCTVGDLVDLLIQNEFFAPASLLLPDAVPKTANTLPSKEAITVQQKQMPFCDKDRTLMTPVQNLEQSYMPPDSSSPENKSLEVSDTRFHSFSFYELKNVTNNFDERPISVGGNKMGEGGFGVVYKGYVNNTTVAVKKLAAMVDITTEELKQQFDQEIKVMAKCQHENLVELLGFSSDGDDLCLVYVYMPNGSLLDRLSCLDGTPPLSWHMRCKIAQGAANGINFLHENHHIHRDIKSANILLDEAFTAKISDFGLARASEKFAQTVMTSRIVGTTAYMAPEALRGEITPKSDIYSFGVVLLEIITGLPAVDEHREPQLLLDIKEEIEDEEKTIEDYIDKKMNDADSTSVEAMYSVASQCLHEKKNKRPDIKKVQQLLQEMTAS
Measure Name: IC50 (nM)
Numbers only, in nM.

// below: answered compounds
Cc1cc(Nc2ncc(-n3cccn3)c(N[C@@H]3C[C@H](CO)[C@@H](O)[C@H]3O)n2)cc(C)n1; 932
Cc1cc(Nc2ncc(-c3nc(-c4ccccc4)cs3)c(N[C@@H]3C[C@H](CO)[C@@H](O)[C@H]3O)n2)ccn1; 11
Cc1cc(Nc2cc(N[C@@H]3C[C@H](CO)[C@@H](O)[C@H]3O)c(-c3nc4ccccc4s3)cn2)cc(C)n1; 14

Value sought for every listed compound: IC50.
1. Cc1cc(Nc2ncc(-c3nc(-c4ccccc4)cs3)c(N[C@@H]3C[C@H](CO)[C@@H](O)[C@H]3O)n2)cc(C)n1
2. Cc1cc(Nc2ncc(-c3cscn3)c(N[C@@H]3C[C@H](CO)[C@@H](O)[C@H]3O)n2)cc(C)n1
3. Cc1cc(Nc2ncc(-c3cncs3)c(N[C@@H]3C[C@H](CO)[C@@H](O)[C@H]3O)n2)cc(C)n1
4. Cc1cc(Nc2ncc(-c3ccc4ccccc4n3)c(N[C@@H]3C[C@H](CO)[C@@H](O)[C@H]3O)n2)cc(C)n1

Outgoing:
[4, 852, 2110, 0.74]
